# target_system: T1, C5 peptide 33-108 fused to GST-tag (human, UniProt P01031 33-108)
# T1 construct: not shown: GST-tag (glutathione S-transferase); vector and linker not restated
# T1 sequence (P01031 33-108): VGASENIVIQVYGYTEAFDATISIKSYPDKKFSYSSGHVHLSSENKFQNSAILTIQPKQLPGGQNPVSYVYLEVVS
# protocol_description: summary drawing of the binding reactions to C5 beta-chain fragments
observed_property: binding result

binder | val
CFA0366 (antibody, V domains shown, Chimeric, rabbit V regions; also called CFA0366-F760G4) VH: QSLEESGGDLVKPGASLSLTCTAAGLDFSSSYYMCWVRQAPGKGLEWIACIYAGSSGIIYYANWAKGRFTISRPSSTTVTLQMTSLTAADTATYFCATYPTYGDGGHAFNLWGPGTLVTVSS VL: AQVLTQTPSSVSAAVGGTVTINCQSSQSVYSSDYLSWYQQKPGQPPKLLIYEASKLASGVPPRFSGSGSGTQFTLTISGVQCDDAATYYCQGTYYSSGWYFAFGGGTEVVVK | no binding
CFA0501 (antibody, V domains shown, Chimeric, rabbit V regions; also called CFA0501-F760G4) VH: QSVEESGGRLVTPGTPLTLTCTASGFSLSSYYMNWVRQAPGKGLEWIGMIYGSGATYYASWAKGRFTISKTSSTTVDLKMTSLTTEDTATYFCARQIYSGDNNDNFWGPGTLVTVSS VL: AYDMTQTPASVEVAVGGTVTINCQASESISNWLAWYQQKPGQRPKLLIYRASTLASGVSSRFKGSGSGTQFTLTISGVECDDAATYYCQQDYSSSNVDNTFGGGTKVVVE | no binding
CFA0672 (antibody, V domains shown, Chimeric, rabbit V regions; also called CFA0672-F760G4) VH: QSVEESGGRLVTPGTPLTLTCTASGFSLSGNAINWVRQAPGKGLEWIGCIYTGSDTTYYATWAKGRFTISKTSTTVDLKIASPTTEDTATYFCARGSGLWGPGTLVTVSS VL: DVVMTQTPASVSAPVGGTVTIKCQASQNIYSLLAWYQQKPGQPPKLLIYHTSDLASGVPSRFRGSGSGTEFTLTISDLECADAATYYCQCTAYGSSDVGGTFGGGTTVVVE | no binding
